Published IC50 for ROCK2 (Homo sapiens, UniProt O75116), assembled from different documents, is shown next.

{"COMPOUND": "CCc1cc(-n2nc(C)n(Cc3cc(F)ccc3F)c2=O)ccc1-c1cn[nH]c1", "IC50": "50 to 250 nM"}
{"COMPOUND": "N#Cc1cccc(Cn2c(CO)nn(-c3ccc(-c4cn[nH]c4)cc3)c2=O)c1", "IC50": "50 to 250 nM"}
{"COMPOUND": "[H][C@]1(c2n[nH]c(=O)c3ccccc32)C[C@]2(C[C@@H](NC(=O)c3c[nH]c4ccccc34)C2)C1 (stereo partly drawn)", "IC50": "5.1 to 15 nM"}
{"COMPOUND": "COc1cc(NC2CCN(c3ccc(-c4n[nH]c(=O)c5ccccc45)cc3)C2=O)ccc1N1CCOCC1 (stereo not drawn)", "IC50": "10 to 100 nM"}
{"COMPOUND": "COc1ccc(Cn2c(CO)nn(-c3ccc(-c4cn[nH]c4)cc3)c2=O)cc1F", "IC50": "250 to 2000 nM"}
{"COMPOUND": "CC(C)(O)COc1ccc2c(c1)NC1(CCN(c3ccc(-c4cn[nH]c4)cc3)C1=O)C2 (stereo not drawn)", "IC50": "30 to 300 nM"}
